Exercise: for every item that follows, state its recorded MIC.
- Test system: Madurella mycetomatis
- test protocol: Antifungal activity against Madurella mycetomatis MM50 by XTT assay
- Type: functional
Quick reminder: number only, in µM, skip the unit.

Prompt line: Could you tell me which MIC is on file for OCCN1CCN(c2cc(-c3ccsc3)c3nc(-c4cccc(F)c4)cn3n2)CC1 ?
Response line: 8

Prompt line: Could you tell me which MIC is on file for CN1CCN(c2cc(-c3ccc4[nH]ccc4c3)c3nc(-c4ccc(F)cc4)cn3n2)CC1 ?
Response line: 4

Prompt line: Could you tell me which MIC is on file for CN1CCN(c2cc(-c3ccsc3)c3nc(-c4ccccc4F)cn3n2)CC1 ?
Response line: 8

Prompt line: Could you tell me which MIC is on file for OCCN1CCN(c2cc(-c3ccsc3)c3nc(-c4ccccc4F)cn3n2)CC1 ?
Response line: 4

Prompt line: Could you tell me which MIC is on file for CN1CCN(c2cc(-c3ccsc3)c3nc(-c4ccccc4)cn3n2)CC1 ?
Response line: 8

Prompt line: Could you tell me which MIC is on file for CN1CCN(c2cc(-c3cnc(N4CCN(C)CC4)nc3)c3nc(-c4ccccc4)cn3n2)CC1 ?
Response line: 8

Prompt line: Could you tell me which MIC is on file for CN1CCN(c2cc(-c3cccc4[nH]ccc34)c3nc(-c4cccc(F)c4)cn3n2)CC1 ?
Response line: 8

Prompt line: Could you tell me which MIC is on file for CN1CCN(c2cc(-c3cnc(N4CCN(C)CC4)nc3)c3nc(-c4cccc(F)c4)cn3n2)CC1 ?
Response line: 4

Prompt line: Could you tell me which MIC is on file for CN1CCN(c2cc(-c3cnc(N4CCN(C)CC4)nc3)c3nc(-c4ccc(F)cc4)cn3n2)CC1 ?
Response line: 4

###

- test protocol: Selectivity index, ratio of IC50 for mouse NIH3T3 cells to IC50 for Madurella mycetomatis MM55
- Format: toxicity
- particulars: read-out: Ratio IC50
Exercise: for every item that follows, state its recorded selectivity ratio.
// no unit, no text: just the number

Prompt line: Could you tell me which selectivity ratio is on file for CN1CCN(c2cc(-c3cnc(N4CCN(C)CC4)nc3)c3nc(-c4ccc(F)cc4)cn3n2)CC1 ?
Response line: 6.8

Prompt line: Could you tell me which selectivity ratio is on file for CN1CCN(c2cc(-c3cccc4[nH]ccc34)c3nc(-c4ccc(F)cc4)cn3n2)CC1 ?
Response line: 7.5

Prompt line: Could you tell me which selectivity ratio is on file for CN1CCN(c2cc(-c3cnn(C)c3)c3nc(-c4ccc(F)cc4)cn3n2)CC1 ?
Response line: 3.1

Prompt line: Could you tell me which selectivity ratio is on file for CN1CCN(c2cc(-c3cnc(N4CCN(C)CC4)nc3)c3nc(-c4ccccc4F)cn3n2)CC1 ?
Response line: 2

Prompt line: Could you tell me which selectivity ratio is on file for OCCN1CCN(c2cc(-c3ccsc3)c3nc(-c4ccccc4F)cn3n2)CC1 ?
Response line: 4

###

- test protocol: Selectivity index, ratio of IC50 for mouse NIH3T3 cells to IC50 for Madurella mycetomatis MM55
- Format: toxicity
- particulars: read-out: Ratio IC50
observable: selectivity ratio
// no unit, no text: just the number

Prompt line: Could you tell me which selectivity ratio is on file for CN1CCN(c2cc(-c3ccsc3)c3nc(-c4ccccc4F)cn3n2)CC1 ?
Response line: 3.7

Prompt line: Could you tell me which selectivity ratio is on file for CN1CCN(c2cc(-c3cccc4[nH]ccc34)c3nc(-c4cccc(F)c4)cn3n2)CC1 ?
Response line: 4.8

Prompt line: Could you tell me which selectivity ratio is on file for CN1CCN(c2cc(-c3ccsc3)c3nc(-c4cccc(F)c4)cn3n2)CC1 ?
Response line: 2.5

Prompt line: Could you tell me which selectivity ratio is on file for CN1CCN(c2cc(-c3ccsc3)c3nc(-c4ccccc4)cn3n2)CC1 ?
Response line: 5.1

Prompt line: Could you tell me which selectivity ratio is on file for OCCN1CCN(c2cc(-c3cnc(N4CCN(CCO)CC4)nc3)c3nc(-c4ccccc4F)cn3n2)CC1 ?
Response line: 0.8

###

- System: Madurella mycetomatis
- test protocol: Antifungal activity against Madurella mycetomatis MM50 by XTT assay
- Type: functional
observable: MIC (µM)
Quick reminder: number only, in µM, skip the unit.

Prompt line: Could you tell me which MIC is on file for CN1CCN(c2cc(-c3cccc4[nH]ccc34)c3nc(-c4ccc(F)cc4)cn3n2)CC1 ?
Response line: 8

Prompt line: Could you tell me which MIC is on file for CN1CCN(c2cc(-c3ccsc3)c3nc(-c4cccc(F)c4)cn3n2)CC1 ?
Response line: 8

Prompt line: Could you tell me which MIC is on file for OCCN1CCN(c2cc(-c3ccsc3)c3nc(-c4ccccc4)cn3n2)CC1 ?
Response line: 8

Prompt line: Could you tell me which MIC is on file for CN1CCN(c2cc(-c3cnc(N4CCN(C)CC4)nc3)c3nc(-c4ccccc4F)cn3n2)CC1 ?
Response line: 4

Prompt line: Could you tell me which MIC is on file for CN1CCN(c2cc(-c3cccc4[nH]ccc34)c3nc(-c4ccccc4)cn3n2)CC1 ?
Response line: 16

Prompt line: Could you tell me which MIC is on file for CCC(C)n1ncn(-c2ccc(N3CCN(c4ccc(OCC5COC(Cn6cncn6)(c6ccc(Cl)cc6Cl)O5)cc4)CC3)cc2)c1=O (stereo not drawn) [ITRACONAZOLE] ?
Response line: 1

###

- test protocol: Selectivity index, ratio of IC50 for mouse NIH3T3 cells to IC50 for Madurella mycetomatis MM55
- Assay type: toxicity
- particulars: read-out: Ratio IC50
Exercise: for every item that follows, state its recorded selectivity ratio.
// no unit, no text: just the number

Prompt line: Could you tell me which selectivity ratio is on file for CN1CCN(c2cc(-c3cccc4[nH]ccc34)c3nc(-c4ccccc4)cn3n2)CC1 ?
Response line: 2.8

Prompt line: Could you tell me which selectivity ratio is on file for CN1CCN(c2cc(-c3cnc(N4CCN(C)CC4)nc3)c3nc(-c4cccc(F)c4)cn3n2)CC1 ?
Response line: 5.5

Prompt line: Could you tell me which selectivity ratio is on file for CN1CCN(c2cc(-c3ccc4[nH]ccc4c3)c3nc(-c4ccc(F)cc4)cn3n2)CC1 ?
Response line: 2.6

###

- Tested on: Madurella mycetomatis
- test protocol: Antifungal activity against Madurella mycetomatis CBS247.48 by XTT assay
- Type: functional
Exercise: for every item that follows, state its recorded MIC.
Quick reminder: number only, in µM, skip the unit.

Prompt line: Could you tell me which MIC is on file for CN1CCN(c2cc(-c3cccc4[nH]ccc34)c3nc(-c4cccc(F)c4)cn3n2)CC1 ?
Response line: 8

Prompt line: Could you tell me which MIC is on file for CN1CCN(c2cc(-c3cnc(N4CCN(C)CC4)nc3)c3nc(-c4ccccc4F)cn3n2)CC1 ?
Response line: 4

Prompt line: Could you tell me which MIC is on file for CN1CCN(c2cc(-c3cnc(N4CCN(C)CC4)nc3)c3nc(-c4ccccc4)cn3n2)CC1 ?
Response line: 8

Prompt line: Could you tell me which MIC is on file for CN1CCN(c2cc(-c3ccsc3)c3nc(-c4cccc(F)c4)cn3n2)CC1 ?
Response line: 8

Prompt line: Could you tell me which MIC is on file for CN1CCN(c2cc(-c3ccc4[nH]ccc4c3)c3nc(-c4ccc(F)cc4)cn3n2)CC1 ?
Response line: 4

Prompt line: Could you tell me which MIC is on file for CN1CCN(c2cc(-c3cnn(C)c3)c3nc(-c4ccc(F)cc4)cn3n2)CC1 ?
Response line: 16

Prompt line: Could you tell me which MIC is on file for CN1CCN(c2cc(-c3ccsc3)c3nc(-c4ccccc4)cn3n2)CC1 ?
Response line: 8

Prompt line: Could you tell me which MIC is on file for CN1CCN(c2cc(-c3cccc4[nH]ccc34)c3nc(-c4ccccc4)cn3n2)CC1 ?
Response line: 16

###

- Tested on: Madurella mycetomatis
- test protocol: Antifungal activity against Madurella mycetomatis MM55 by XTT assay
- Type: functional, organism-based
- particulars: Madurella mycetomatis, MM55
Exercise: for every item that follows, state its recorded pIC50.
When answering, recall that pIC50 equals minus log10 of the concentration in mol/L, and write that number alone.

Prompt line: Could you tell me which pIC50 is on file for OCCN1CCN(c2cc(-c3ccsc3)c3nc(-c4ccc(F)cc4)cn3n2)CC1 ?
Response line: 5.28

Prompt line: Could you tell me which pIC50 is on file for COc1ccccc1-c1cn2nc(N3CCN(C)CC3)cc(-c3ccsc3)c2n1 ?
Response line: 5.24

Prompt line: Could you tell me which pIC50 is on file for CN1CCN(c2cc(-c3ccc4cc[nH]c4c3)c3nc(-c4ccc(F)cc4)cn3n2)CC1 ?
Response line: 5.15

Prompt line: Could you tell me which pIC50 is on file for CN1CCN(c2cc(-c3ccsc3)c3nc(-c4ccccc4)cn3n2)CC1 ?
Response line: 5.46

Prompt line: Could you tell me which pIC50 is on file for OCCN1CCN(c2cc(-c3ccsc3)c3nc(-c4cccc(F)c4)cn3n2)CC1 ?
Response line: 6.05

Prompt line: Could you tell me which pIC50 is on file for OCCN1CCN(c2cc(-c3ccsc3)c3nc(-c4ccccc4F)cn3n2)CC1 ?
Response line: 5.89

Prompt line: Could you tell me which pIC50 is on file for CN1CCN(c2cc(-c3ccsc3)c3nc(-c4ccc(F)cc4)cn3n2)CC1 ?
Response line: 5.30

Prompt line: Could you tell me which pIC50 is on file for CN1CCN(c2cc(-c3cnc(N4CCN(C)CC4)nc3)c3nc(-c4ccccc4F)cn3n2)CC1 ?
Response line: 5.40

Prompt line: Could you tell me which pIC50 is on file for CN1CCN(c2cc(-c3cnc(N4CCN(C)CC4)nc3)c3nc(-c4ccc(F)cc4)cn3n2)CC1 ?
Response line: 5.54
